# MEASUREMENT_TARGET: Recombinant human Cbl-b (aa 36-427) (Homo sapiens)
# Construct: Recombinant human Cbl-b (aa 36-427) was expressed in E coli; biotin (biotinylated in vitro)
# PROTOCOL: Cbl-b Biochemical Assay (TR-FRET)
# CONDITIONS_USED: 6 nM Cbl-b, 1-2.5 nM Src-Zap70, 0.5 mM ATP; HTRF signal at 520 nm
# IC50 listing for each entry below

CN(Cc1cc(C(F)(F)F)c2oc(-c3cc(-c4cc(C#N)ccc4-c4nncn4C)cc(NCC4(CC#N)CC4)n3)nc2c1)[C@@H]1CCC[C@@H]1O	< 200 nM

Exercise: # IC50 lookup, item C[C@H]1CCCN(Cc2cc(C(F)(F)F)c3oc(-c4cccc([C@H](c5nncn5C)C5CCC5)c4)nc3c2)C1 (single isomer, unassigned)
Key: < 200 nM

Exercise: Please look up its IC50: C[C@H]1CCCN(Cc2cc(C(F)(F)F)c3oc(-c4cccc([C@H](c5nncn5C)[C@H]5C[C@H](C(F)(F)F)C5)c4)nc3c2)C1
Key: > 5000 nM

---

# MEASUREMENT_TARGET: Recombinant human Cbl-b (aa 36-427) (Homo sapiens, UniProt Q13191)
# Construct: Recombinant human Cbl-b (aa 36-427) was expressed in E coli; biotin (biotinylated in vitro)
# Sequence (Q13191 36-427): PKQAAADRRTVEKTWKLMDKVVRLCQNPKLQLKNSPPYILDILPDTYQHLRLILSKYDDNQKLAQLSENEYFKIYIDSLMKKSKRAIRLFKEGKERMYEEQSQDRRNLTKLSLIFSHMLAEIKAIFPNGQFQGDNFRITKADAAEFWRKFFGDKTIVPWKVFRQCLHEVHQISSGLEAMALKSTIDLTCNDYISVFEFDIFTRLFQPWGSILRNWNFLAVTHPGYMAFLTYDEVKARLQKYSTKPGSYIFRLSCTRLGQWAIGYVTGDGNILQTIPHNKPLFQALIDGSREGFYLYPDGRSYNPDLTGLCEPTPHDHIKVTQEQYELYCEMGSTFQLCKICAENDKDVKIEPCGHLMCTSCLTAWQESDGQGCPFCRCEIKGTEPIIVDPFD
# PROTOCOL: Cbl-b Biochemical Assay (TR-FRET)
# CONDITIONS_USED: 6 nM Cbl-b, 1-2.5 nM Src-Zap70, 0.5 mM ATP; HTRF signal at 520 nm
pIC50: −log10 of the molar value.
PROPERTY_LABEL: pIC50

Cn1cnnc1[C@@H](c1cccc(-c2nc3cc(CN4CCC5(CCC5)C4)cc(C(F)(F)F)c3o2)c1)[C@H]1C[C@@H](C(F)(F)F)C1	5.30 to 6.70
CCNc1cc(-c2cc(C#N)ccc2-c2nncn2C)cc(-c2nc3cc(CNCC4(C#N)CCCC4)cc(C(F)(F)F)c3o2)n1	5.30 to 6.70
Cn1cnnc1[C@@H](c1cccc(-c2nc3cc(CN4CCC5(CCC5)C4)cc(C(F)(F)F)c3o2)c1)[C@H]1C[C@H](C(F)(F)F)C1	< 5.30
Cn1cnnc1[C@H](c1cccc(-c2nc3cc(CN4CCC5(CCC5)C4)cc(C(F)(F)F)c3o2)c1)[C@H]1C[C@H](C(F)(F)F)C1	< 5.30
Cn1cnnc1-c1ccc(C#N)cc1-c1cc(NCCC#N)nc(-c2nc3cc(CNCC(C)(C)O)cc(C(F)(F)F)c3o2)c1	> 6.70
Cn1cnnc1[C@]1(c2cccc(-c3nc4cc(CN5CCC6(CC6)C5)cc(C(F)(F)F)c4o3)c2)C[C@H](C)C1	> 6.70
C[C@H]1CCCN(Cc2cc(C(F)(F)F)c3oc(-c4cccc([C@@H](c5nncn5C)C5CCC5)c4)nc3c2)C1	< 5.30
Cn1cnnc1-c1ccc(C#N)cc1-c1cc(NCC2(CC#N)CC2)nc(-c2nc3cc(CN[C@@H]4CCC[C@@H]4O)cc(C(F)(F)F)c3o2)c1	> 6.70

Exercise: // pIC50 lookup, key: C[C@H]1CCCN(Cc2cc(C(F)(F)F)c3oc(-c4cccc([C@H](c5nncn5C)[C@H]5C[C@@H](C(F)(F)F)C5)c4)nc3c2)C1 (single isomer, unassigned)
Key: > 6.70

Exercise: Report pIC50 for Cn1cnnc1-c1cc(F)ccc1-c1cc(NC[C@@H](O)CC#N)nc(-c2nc3cc(CN4CCC5(CC5)C4)cc(C(F)(F)F)c3o2)c1 please.
Key: > 6.70

Exercise: Could you tell me which pIC50 is on file for CO[C@@H]1CCCN(Cc2cc(C(F)(F)F)c3oc(-c4cccc([C@]5(c6nncn6C)C[C@@H](C)C5)c4)nc3c2)C1 ?
Key: 5.30 to 6.70

Exercise: Data request, read-out pIC50, for CC(C)NCc1cc(C(F)(F)F)c2oc(-c3cccc([C@]4(c5nncn5C)C[C@@H](C)C4)c3)nc2c1
Key: 5.30 to 6.70

Exercise: Can you look up the measured pIC50 of C[C@H]1CCCN(Cc2cc(C(F)(F)F)c3oc(-c4cccc([C@@H](c5nncn5C)[C@H]5C[C@H](C(F)(F)F)C5)c4)nc3c2)C1 for me?
Key: < 5.30

---

# MEASUREMENT_TARGET: Recombinant human Cbl-b (aa 36-427) (Homo sapiens)
# Construct: Recombinant human Cbl-b (aa 36-427) was expressed in E coli; biotin (biotinylated in vitro)
# PROTOCOL: Cbl-b Biochemical Assay (TR-FRET)
# CONDITIONS_USED: 6 nM Cbl-b, 1-2.5 nM Src-Zap70, 0.5 mM ATP; HTRF signal at 520 nm
# Description: Cbl-b Biochemical Assay (TR-FRET) Recombinant human Cbl-b (aa 36-427) was expressed in E coli, purified and biotinylated in vitro. […] The enzyme reaction was terminated and the binding reaction was initiated by adding 10p of binding assay mix to all wells and incubating the plate at RT for 60 min prior to assay read. […] The HTRF assay signal was measured at 520 nm on an Envision plate reader, with reference signal at 485 or 620 nm. […]
PROPERTY_LABEL: IC50

Exercise: Request body: readout IC50, system Recombinant human Cbl-b (aa 36-427) (Homo sapiens), query CN(Cc1cc(C(F)(F)F)c2oc(-c3cccc([C@]4(c5nncn5C)C[C@@H](C)C4)c3)nc2c1)CC1CCC1 . Return the value.
Key: < 200 nM

Exercise: Find the measured IC50: item Cn1cnnc1-c1cc(F)ccc1-c1cc(NCCC#N)nc(-c2nc3cc(CO)cc(C(F)(F)F)c3o2)c1 , target or system Recombinant human Cbl-b (aa 36-427) (Homo sapiens).
Key: 200 to 5000 nM

Exercise: What IC50 appears in the records for this molecule with Recombinant human Cbl-b (aa 36-427) (Homo sapiens)? CO[C@H]1CCCN(Cc2cc(C(F)(F)F)c3oc(-c4cccc([C@]5(c6nncn6C)C[C@@H](C)C5)c4)nc3c2)C1
Key: 200 to 5000 nM

Exercise: Please state recorded IC50 (tested on Recombinant human Cbl-b (aa 36-427) (Homo sapiens)) of Cn1cnnc1-c1cc(F)ccc1-c1cc(NCCC#N)nc(-c2nc3cc(CN4CCC5(CC5)C4)cc(C(F)(F)F)c3o2)c1
Key: < 200 nM
